Source of measurements: patent US7091311

- TEST_TARGET: soluble TPO-R (UniProt P40238 26-491)
- Sequence (P40238 26-491): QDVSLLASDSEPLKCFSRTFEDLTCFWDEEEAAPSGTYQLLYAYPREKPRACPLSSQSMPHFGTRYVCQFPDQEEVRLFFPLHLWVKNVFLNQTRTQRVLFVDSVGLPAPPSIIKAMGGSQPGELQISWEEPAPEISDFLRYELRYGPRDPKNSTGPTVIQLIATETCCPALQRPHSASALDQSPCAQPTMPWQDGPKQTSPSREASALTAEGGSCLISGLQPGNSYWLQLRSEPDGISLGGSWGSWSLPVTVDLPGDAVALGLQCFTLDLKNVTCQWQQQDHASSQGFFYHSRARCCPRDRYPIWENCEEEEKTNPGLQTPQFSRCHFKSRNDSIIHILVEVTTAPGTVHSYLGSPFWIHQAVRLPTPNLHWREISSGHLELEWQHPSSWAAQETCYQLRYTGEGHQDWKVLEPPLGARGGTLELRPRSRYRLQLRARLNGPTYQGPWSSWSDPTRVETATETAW
- ASSAY: competition ELISA vs MBP-TPO156
pIC50: −log10 of the molar value. Where no end group is shown, it is not given here.
PARAMETER_MEASURED: pIC50

IN: Endpoint output: pIC50 of CIEGPTLRQWLAARAC (cysteine pairing not given here; also: further groups not given here, structure printed only as a drawing) [[drawing CHEM-US-00060] (SEQ ID NO:194)] . Value?
OUT: ≥ 6.30

IN: Endpoint output: pIC50 of H-IEGPTLRQWLAARA-NH2 [[H]-IEGPTLRQWLAARA-[NH2]] . Value?
OUT: ≥ 6.30

IN: Endpoint output: pIC50 of CIEGPTLRQWLAARA (also: further groups not given here, also called [drawing CHEM-US-00062]) [[drawing CHEM-US-00030] (SEQ ID NO:185)(SEQ ID NO:185)] . Value?
OUT: ≥ 6.30
